B1: TPR 5TU (parent)
chain: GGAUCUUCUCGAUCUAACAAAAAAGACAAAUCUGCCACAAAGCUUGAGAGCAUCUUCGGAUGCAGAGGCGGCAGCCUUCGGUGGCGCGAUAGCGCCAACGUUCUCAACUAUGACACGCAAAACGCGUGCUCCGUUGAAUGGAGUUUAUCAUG

# Variants of: B1
# measurementDescription: polymerase ribozyme fitness, log enrichment relative to wild type (log ratio); higher = more active; in vitro selection for triplet polymerase activity
This sample holds only a part of the variants without activity.
Parameter: polymerase ribozyme fitness (log ratio). Scope: all listed entries.
reportedProperty: polymerase ribozyme fitness (log ratio)

variantNotation: C8G A16C G25U A37C G59C A64U C87A G92C
reportedProperty: polymerase ribozyme fitness (log ratio)
resultOperator: ≤
val: -4.2
//
variantNotation: A41C C76A G84A A120C
reportedProperty: polymerase ribozyme fitness (log ratio)
resultOperator: =
val: -2.53
//
variantNotation: C69U G83A
reportedProperty: polymerase ribozyme fitness (log ratio)
resultOperator: =
val: -3.04
//
variantNotation: G11C C85U A119G
reportedProperty: polymerase ribozyme fitness (log ratio)
resultOperator: =
val: -2.02
//
variantNotation: C5A A23G U33G A66G G83A C87U A113G G124A U127C
reportedProperty: polymerase ribozyme fitness (log ratio)
resultOperator: =
val: -3.78
//
variantNotation: A24G G50C C72U C87G U111C
reportedProperty: polymerase ribozyme fitness (log ratio)
resultOperator: ≤
val: -4.2
//
variantNotation: A12U C14U A121U C125U
reportedProperty: polymerase ribozyme fitness (log ratio)
resultOperator: =
val: -0.306
//
variantNotation: A17C A52G G81A G83A A98U
reportedProperty: polymerase ribozyme fitness (log ratio)
resultOperator: =
val: -0.507
//
variantNotation: A52G G83A A121G
reportedProperty: polymerase ribozyme fitness (log ratio)
resultOperator: =
val: -0.142
//
variantNotation: A20U G58C C85U A98U C129U U134C
reportedProperty: polymerase ribozyme fitness (log ratio)
resultOperator: =
val: -1.85
//
variantNotation: C95U U130G
reportedProperty: polymerase ribozyme fitness (log ratio)
resultOperator: =
val: -2.55
//
variantNotation: G11U A40U G84A A110G
reportedProperty: polymerase ribozyme fitness (log ratio)
resultOperator: =
val: -3.56
//
variantNotation: U9G G58C C93G C118U G143A U144C
reportedProperty: polymerase ribozyme fitness (log ratio)
resultOperator: ≤
val: -4.2
//
variantNotation: A19C A21C C76U C87A A110G A120G
reportedProperty: polymerase ribozyme fitness (log ratio)
resultOperator: ≤
val: -4.2
//
variantNotation: C57G C93A
reportedProperty: polymerase ribozyme fitness (log ratio)
resultOperator: =
val: -2.2
//
variantNotation: G81U U82A G92A G152U
reportedProperty: polymerase ribozyme fitness (log ratio)
resultOperator: ≤
val: -4.2
//
variantNotation: C85G G141A
reportedProperty: polymerase ribozyme fitness (log ratio)
resultOperator: =
val: -2.85
//
variantNotation: C5A C18U G86U
reportedProperty: polymerase ribozyme fitness (log ratio)
resultOperator: =
val: -1.4
//
variantNotation: C27U A39U U53A C93U
reportedProperty: polymerase ribozyme fitness (log ratio)
resultOperator: ≤
val: -4.2
//
variantNotation: C76U C87U C116A A122U U146G
reportedProperty: polymerase ribozyme fitness (log ratio)
resultOperator: =
val: -3.7
//
variantNotation: A37C G80A G86A
reportedProperty: polymerase ribozyme fitness (log ratio)
resultOperator: =
val: -2.42
//
variantNotation: U101G A115G
reportedProperty: polymerase ribozyme fitness (log ratio)
resultOperator: =
val: -0.695

Where do these numbers come from? They come from the RNAGym collection of RNA variant scans (doi:10.1073/pnas.2313332121).
